biological target: canine T2R2 (Canis lupus, UniProt Q2ABD9); assay: Canine T2R2 activation, intracellular calcium assay in transiently transfected HEK293 cells, dose response (FIG. 4E); settings: agonist; HEK293 transient, cT2R2 (SEQ ID NO:18); calcium fluorescence or luminescence, FLIPR Tetra; at least 8 concentrations in triplicate
Sequence (Q2ABD9 1-303): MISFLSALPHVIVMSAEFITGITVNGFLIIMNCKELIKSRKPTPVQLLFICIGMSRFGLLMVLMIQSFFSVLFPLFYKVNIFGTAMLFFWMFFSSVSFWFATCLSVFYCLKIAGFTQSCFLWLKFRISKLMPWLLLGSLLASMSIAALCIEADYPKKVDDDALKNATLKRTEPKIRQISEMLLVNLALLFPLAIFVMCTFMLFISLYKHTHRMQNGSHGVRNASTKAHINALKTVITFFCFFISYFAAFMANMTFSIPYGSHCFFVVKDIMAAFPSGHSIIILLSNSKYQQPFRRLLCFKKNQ
Measurement kind: EC50 (µM)
Answers are plain numbers, in µM.

Lab note: CC1COc2c(N3CCN(C)CC3)c(F)cc3c(=O)c(C(=O)O)cn1c23 (stereo not shown) gave EC50 of 232

###

target: canine T2R3 (Canis lupus, UniProt Q2ABD8); experiment: Canine T2R3 activation, intracellular calcium assay in transiently transfected HEK293 cells, dose response (FIG. 5E); details: agonist; HEK293 transient, cT2R3 (SEQ ID NO:19); calcium fluorescence or luminescence, FLIPR Tetra; at least 8 concentrations in triplicate
Sequence (Q2ABD8 1-316): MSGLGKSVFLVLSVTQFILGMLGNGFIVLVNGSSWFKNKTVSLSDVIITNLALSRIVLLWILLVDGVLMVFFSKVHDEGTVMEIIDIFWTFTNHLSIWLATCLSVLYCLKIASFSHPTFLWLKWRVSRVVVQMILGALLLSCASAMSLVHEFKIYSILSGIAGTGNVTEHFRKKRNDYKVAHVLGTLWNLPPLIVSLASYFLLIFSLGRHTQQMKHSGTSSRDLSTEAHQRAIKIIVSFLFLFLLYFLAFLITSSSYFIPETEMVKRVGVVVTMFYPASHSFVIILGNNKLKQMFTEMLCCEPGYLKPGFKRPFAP
Measurement kind: EC50 (µM)
One number for each entry, in µM.

EC50 recorded for this compound, CCN(CC)CCCC(C)Nc1ccnc2cc(Cl)ccc12 (stereo not shown) , is 81
